# assay-protocol: Mean relative potency is the ratio of potencies of 'Ac-(Cha)RAMASL-NH2' and compound, to inhibit MHC class II DRB1*0401
Starred links: 1 amine or outer side, 2 acyl side, 3 side chain; linkers in the order of their positions; H or OH if unused. Non-standard residues stand in square brackets, D forms with d. Residues, ends and D or L forms follow the SMILES beside them. *: point of attachment. X3 = O=C([C@@H](N[*:1])[C@H](O)[C@H](O)[C@@H](O)CO)[*:2]; Cha = N[C@@H](CC1CCCCC1)C(=O)O; NMeM = CN[C@@H](CCSC)C(=O)O; NHCH(CH2OH)2 = OCC(CO)N*; NHCH2CH2OH = OCCN*
measurement-type: Mean relative potency

[[record]]
compound = "CSCC[C@H](NC(=O)[C@H](C)NC(=O)[C@H](CCCN=C(N)N)NC(=O)[C@H](CC1CCCCC1)NC(C)=O)C(=O)N1CCCC[C@@H]1C(=O)N[C@@H](CO)C(=O)N[C@@H](CC(C)C)C(N)=O"
data_value = 1.08

[[record]]
compound = "CSCC[C@H](NC(=O)[C@H](CCSC)NC(=O)[C@H](CCCN=C(N)N)NC(=O)[C@H](CC1CCCCC1)NC(C)=O)C(=O)N[C@@H](C)C(=O)N[C@@H](CO)C(=O)N[C@@H](CC(C)C)C(N)=O (Ac-[Cha]RMMASL-NH2)"
data_value = 0.88

[[record]]
compound = "CSCC[C@H](NC(=O)[C@H](CCSC)NC(=O)[C@H](CCCN=C(N)N)NC(=O)[C@H](CC1CCCCC1)NC(C)=O)C(=O)N[C@@H](C)C(=O)NCCO (Ac-[Cha]RMMA-NHCH2CH2OH)"
data_value = 1.04

[[record]]
compound = "CSCC[C@@H](C(=O)N[C@@H](C)C(=O)N[C@@H](CO)C(=O)N[C@@H](CC(C)C)C(N)=O)N(C)C(=O)[C@H](C)NC(=O)[C@H](CCCN=C(N)N)NC(=O)[C@H](CC1CCCCC1)NC(C)=O (Ac-[Cha]RA[NMeM]ASL-NH2)"
data_value = 0.005

[[record]]
compound = "CSCC[C@H](NC(=O)[C@H](CCSC)NC(=O)[C@H](CCCN=C(N)N)NC(=O)[C@H](CC1CCCCC1)NC(C)=O)C(=O)N[C@@H](C)C(=O)NC(CO)CO (Ac-[Cha]RMMA-{NHCH(CH2OH)2})"
data_value = 1.55


I. CSCC[C@H](NC(=O)[C@H](C)NC(=O)[C@H](CCCN=C(N)N)NC(=O)[C@H](CC1CCCCC1)NC(C)=O)C(=O)N[C@H](C)C(=O)N[C@@H](CO)C(=O)N[C@@H](CC(C)C)C(=O)N(C)C
II. CSCC[C@H](NC(=O)[C@H](CCCN=C(N)N)NC(=O)[C@H](CC1CCCCC1)NC(C)=O)C(=O)N[C@@H](CCSC)C(=O)N[C@H](C=O)[C@H](O)[C@H](O)[C@@H](O)CO (Ac-[Cha]RMM[X3]-aldehyde)
Between item I and item II , which reported Mean relative potency is smaller? Lab log: write the label of the selected item as the result. II
